Sourced from patent US12390451B2

# Test Details: Tissue distribution in rats after oral administration
# Format: in vivo, male Sprague-Dawley rats
# Condition Details: male, Sprague-Dawley, rat, colon lumen content, PO 25 mg/kg, 5 h, average, N = 3, read-out: Colon Content concentration
Measurement Label: concentration at 5 h (µg/mL)
I only need the number, in µg/mL, no unit after it.

Query: Consider the compound CC(C)(O)CNC(=O)Cc1nc2cnc3[nH]ccc3c2n1[C@H]1CC[C@H](CC#N)CC1 and give its measured concentration at 5 h.
Reply: 830

---

# System: JAK1/3 (Mus musculus, UniProt P52332+Q62137)
# Construct: endogenous in cells
# Sequence (P52332 whole entry): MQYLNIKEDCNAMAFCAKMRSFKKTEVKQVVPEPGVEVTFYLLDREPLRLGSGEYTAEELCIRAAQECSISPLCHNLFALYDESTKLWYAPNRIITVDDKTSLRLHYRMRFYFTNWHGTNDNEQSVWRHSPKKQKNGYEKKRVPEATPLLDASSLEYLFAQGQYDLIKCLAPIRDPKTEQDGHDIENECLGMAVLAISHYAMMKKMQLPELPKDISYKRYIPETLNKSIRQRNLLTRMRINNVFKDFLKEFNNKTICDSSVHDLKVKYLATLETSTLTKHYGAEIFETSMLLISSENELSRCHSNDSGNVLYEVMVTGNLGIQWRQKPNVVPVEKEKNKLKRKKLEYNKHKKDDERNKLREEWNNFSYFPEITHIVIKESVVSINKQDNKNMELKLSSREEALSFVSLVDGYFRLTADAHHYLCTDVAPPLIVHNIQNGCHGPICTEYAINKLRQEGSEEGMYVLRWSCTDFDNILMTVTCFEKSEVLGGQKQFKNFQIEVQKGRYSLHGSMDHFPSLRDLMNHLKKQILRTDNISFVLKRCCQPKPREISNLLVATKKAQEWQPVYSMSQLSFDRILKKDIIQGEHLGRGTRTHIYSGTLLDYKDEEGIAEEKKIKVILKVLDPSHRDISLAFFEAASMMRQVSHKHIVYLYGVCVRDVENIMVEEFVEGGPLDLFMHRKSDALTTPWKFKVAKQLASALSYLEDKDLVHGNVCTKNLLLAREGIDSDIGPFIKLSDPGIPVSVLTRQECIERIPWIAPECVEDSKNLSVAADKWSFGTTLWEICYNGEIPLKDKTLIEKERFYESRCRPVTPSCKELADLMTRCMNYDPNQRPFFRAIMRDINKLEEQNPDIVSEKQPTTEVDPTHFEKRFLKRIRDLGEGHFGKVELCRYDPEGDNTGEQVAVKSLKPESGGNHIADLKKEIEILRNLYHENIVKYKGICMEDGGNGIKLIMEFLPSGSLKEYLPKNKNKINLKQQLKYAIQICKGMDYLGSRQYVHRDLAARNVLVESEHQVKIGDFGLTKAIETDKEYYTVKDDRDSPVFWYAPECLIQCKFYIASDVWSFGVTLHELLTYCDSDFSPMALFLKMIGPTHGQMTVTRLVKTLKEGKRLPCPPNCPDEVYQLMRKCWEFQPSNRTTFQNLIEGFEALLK
# Sequence (Q62137 whole entry): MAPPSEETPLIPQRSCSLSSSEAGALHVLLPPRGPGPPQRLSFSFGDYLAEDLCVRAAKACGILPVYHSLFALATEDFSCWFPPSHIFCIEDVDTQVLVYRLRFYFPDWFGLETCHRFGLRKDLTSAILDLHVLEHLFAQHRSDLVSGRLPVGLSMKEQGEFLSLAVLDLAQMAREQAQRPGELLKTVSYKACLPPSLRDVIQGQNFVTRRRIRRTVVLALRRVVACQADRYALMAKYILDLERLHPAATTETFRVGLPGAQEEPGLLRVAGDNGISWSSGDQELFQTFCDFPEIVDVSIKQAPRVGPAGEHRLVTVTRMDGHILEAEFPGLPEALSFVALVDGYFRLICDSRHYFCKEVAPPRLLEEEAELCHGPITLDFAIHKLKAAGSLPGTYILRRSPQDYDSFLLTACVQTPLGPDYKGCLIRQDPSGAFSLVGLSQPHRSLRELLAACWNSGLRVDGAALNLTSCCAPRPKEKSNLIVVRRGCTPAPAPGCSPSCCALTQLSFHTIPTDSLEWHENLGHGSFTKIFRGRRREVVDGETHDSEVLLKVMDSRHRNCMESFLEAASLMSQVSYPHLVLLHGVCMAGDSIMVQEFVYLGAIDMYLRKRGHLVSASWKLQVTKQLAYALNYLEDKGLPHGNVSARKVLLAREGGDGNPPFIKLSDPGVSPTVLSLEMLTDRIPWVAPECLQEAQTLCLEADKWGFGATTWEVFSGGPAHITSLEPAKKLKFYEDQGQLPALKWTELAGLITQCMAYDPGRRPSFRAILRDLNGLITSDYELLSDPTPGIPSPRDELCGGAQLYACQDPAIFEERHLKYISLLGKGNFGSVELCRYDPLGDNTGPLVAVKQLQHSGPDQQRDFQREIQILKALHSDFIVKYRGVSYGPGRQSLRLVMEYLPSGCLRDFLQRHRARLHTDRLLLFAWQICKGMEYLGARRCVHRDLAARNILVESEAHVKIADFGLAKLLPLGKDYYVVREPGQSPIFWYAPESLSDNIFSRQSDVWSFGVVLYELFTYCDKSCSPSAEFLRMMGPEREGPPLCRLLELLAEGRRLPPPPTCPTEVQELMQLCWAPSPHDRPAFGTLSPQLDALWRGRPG
# Sequence (Q9JHX3 20-529 partner): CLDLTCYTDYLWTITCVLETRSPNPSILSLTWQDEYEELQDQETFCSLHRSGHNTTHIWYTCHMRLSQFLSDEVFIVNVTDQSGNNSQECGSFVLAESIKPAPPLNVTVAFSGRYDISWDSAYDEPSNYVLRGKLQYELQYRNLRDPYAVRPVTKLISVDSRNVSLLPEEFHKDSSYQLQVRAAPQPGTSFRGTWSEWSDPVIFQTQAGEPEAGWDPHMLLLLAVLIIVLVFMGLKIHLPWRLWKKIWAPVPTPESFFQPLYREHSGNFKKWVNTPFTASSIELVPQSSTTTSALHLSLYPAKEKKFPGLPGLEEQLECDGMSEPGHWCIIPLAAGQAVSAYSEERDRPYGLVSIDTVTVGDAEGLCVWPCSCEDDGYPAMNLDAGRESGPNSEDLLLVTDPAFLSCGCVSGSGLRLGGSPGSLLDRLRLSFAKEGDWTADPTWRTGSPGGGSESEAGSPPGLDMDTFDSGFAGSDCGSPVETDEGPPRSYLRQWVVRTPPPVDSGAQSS
# Sequence (P34902 23-369 partner): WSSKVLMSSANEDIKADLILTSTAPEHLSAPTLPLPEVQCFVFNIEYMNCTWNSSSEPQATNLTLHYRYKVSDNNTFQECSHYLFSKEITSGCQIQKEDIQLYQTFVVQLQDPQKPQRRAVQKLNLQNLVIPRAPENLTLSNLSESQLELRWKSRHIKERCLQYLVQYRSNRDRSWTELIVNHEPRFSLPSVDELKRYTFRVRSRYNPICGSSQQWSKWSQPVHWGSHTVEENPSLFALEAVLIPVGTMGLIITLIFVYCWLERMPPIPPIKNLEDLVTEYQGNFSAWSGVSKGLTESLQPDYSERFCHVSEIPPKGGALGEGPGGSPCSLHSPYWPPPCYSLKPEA
# Test Details: IL-21-induced pSTAT-3 in murine whole blood
Measurement Label: pIC50
Formally, pIC50 is defined as -log10 of the concentration c, with c in mol/L.

Query: Consider the molecule CC(C)(O)CNC(=O)Cc1nc2cnc3[nH]ccc3c2n1[C@H]1CC[C@H](CC#N)CC1 [Compound of Formula I] and give its measured pIC50.
Reply: 6.38

---

# Test Details: Tissue distribution in rats after oral administration
# Assay type: in vivo, male Sprague-Dawley rats
# Condition Details: male, Sprague-Dawley, rat, plasma, PO 25 mg/kg, 3 h, average ±SD, read-out: Plasma concentration
Measurement Label: concentration at 3 h (ng/mL)
I only need the number, in ng/mL, no unit after it.

Query: Consider the compound CC(C)(O)CNC(=O)Cc1nc2cnc3[nH]ccc3c2n1[C@H]1CC[C@H](CC#N)CC1 and give its measured concentration at 3 h.
Reply: 3.1

---

# Test Details: Tissue distribution in rats after oral administration
# Assay type: in vivo, male Sprague-Dawley rats
# Condition Details: male, Sprague-Dawley, rat, kidney, PO 25 mg/kg, 2 h, average ±SD, read-out: Kidney concentration
Measurement Label: concentration at 2 h (ng/g)
I only need the number, in ng/g, no unit after it.

Query: Consider the compound CC(C)(O)CNC(=O)Cc1nc2cnc3[nH]ccc3c2n1[C@H]1CC[C@H](CC#N)CC1 and give its measured concentration at 2 h.
Reply: 24.3
